Reference for the values: PubChem BioAssay

assay_method_text: small-molecule microarray binders of probe aShh, primary screen, biochemical, biotinylated probe, 635/667 nm fluorescence (AID 1114);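 also: probe is biotin-labelled aShh protein from a stem cell growth factor screen; measures binding of labelled protein to compounds printed on the slide; score merges feature fluorescence at 667 nm with signal-to-noise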
settings: higher = more signal
Rule: class 1 for composite z-score not less than 0.2, class 0 for anything less.

molecule | assigned_category
N#Cc1ccc(C(O)C2C=CC3C(=O)NC(=O)C3N2Nc2ccccn2)cc1 (stereo not given) | class 0
CCOC(=O)C1=CC[C@@H](c2ccccc2Cl)N(S(=O)(=O)c2ccc(C)cc2)[C@H]1c1cccc(OC)c1 | class 0
CN1C=C(C(=O)OCCS(C)(=O)=O)C(C(=O)OCCS(C)(=O)=O)=CC(CCCO)=CC1c1ccc(CN2CCCC2)cc1 (stereo not given) | class 1
CC(C)CNC(=O)[C@@H]1c2ccccc2C(=O)N(C2Cc3ccccc3C2)[C@H]1c1ccc(CO)cc1 | class 0
C=CCOC(=O)[C@H]1[C@@H]2C(=O)O[C@@H](c3ccccc3)[C@@H](c3ccccc3)N2[C@@H](c2ccc(OCCOC(=O)[C@H]3C[C@H]4C(=O)NCC(=O)N4[C@H]3c3ccc(O)cc3)cc2)[C@]12C(=O)Nc1ccc(I)cc12 | class 0
